Procedure summary: Quantitative High-Throughput drug screen in 47 multiple myeloma cell lines against the NCATS MIPE library collection: KMS11_JCRBsus cell viability assay (AID 1919873); note: nearly all actives have a fitted effect of over 50% in size
Condition summary: KMS11 myeloma viability, CellTiter-Glo ATP luminescence, 48 h; series mostly up to 45.8 µM
Records with an inconclusive call do not appear. Calls of active or inactive are those of the source. Calls come from the whole dose curve; as a rule, active = well fitted cell-killing curve with a large enough effect; inconclusive = small, poorly fitted or top-dose-only effect, or effect the other way; inactive = no such curve, though single readings can be large or run the other way.
Classes used: y = active, n = inactive

compound="O=C(O)C1=NC(C(=O)O)CC(C=CN2c3cc(O)c(OC4OC(CO)C(O)C(O)C4O)cc3CC2C(=O)O)=C1 (configuration not stated)" cat=n
compound=COc1cc2nc(-c3cc(F)ccc3O)nc(N[C@@H]3CNC[C@@H]3C(C)(C)O)c2cc1OC cat=y
compound="Cc1nn(Cc2ccccc2Cl)c(C)c1CN(C)CC(O)COc1ccc(Cl)cc1 (configuration not stated)" cat=y
compound=C[C@@H]1CC=CC=CC=CC=C[C@@H](O[C@@H]2O[C@H](C)[C@@H](O)[C@H](N)[C@H]2O)C[C@@H]2O[C@](O)(C[C@@H](O)C[C@@H]3O[C@@H]3C=CC(=O)O1)C[C@H](O)[C@@H]2C(=O)O cat=y
compound=Cc1nc(C(=O)NCC(=O)O)c(O)c2ccc(Oc3ccccc3)cc12 cat=n
compound=Cc1c(C(=O)Nc2ccc(N3C[C@@H](C)O[C@@H](C)C3)nc2)cccc1-c1ccc(OC(F)(F)F)cc1 cat=n
compound="C[C@@H]1O[C@@H](O[C@H]2CC[C@@]3(C)[C@H](CC[C@@H]4[C@H]3C[C@@H](O)[C@]3(C)[C@@H](C5=CC(=O)OC5)CC[C@]43O)C2)C[C@H](O)[C@@H]1O[C@H]1C[C@H](O)[C@H](O[C@H]2C[C@H](O)[C@@H](O)[C@@H](C)O2)[C@H](C)O1 (stereo in doubt)" cat=y

Data provenance: PubChem BioAssay (NCATS)
